System: C. freundii GN346
Experimental Details: Anti-microbial activities (MIC)
Assay type: cell-based
Conditions Used: Citrobacter freundii, Sensitivity Disk agar-N+5% Horse blood, 10^6 CFU/ml, read-out: minimum inhibiting concentration (MIC)
Measurement Kind: MIC (µg/mL)

Consider the following illustrative entries.
C[C@@H](O)[C@H]1C(=O)N2C(C(=O)O)=C(c3cn4cncc4s3)[C@H](C)[C@H]12 : 1.56
C[C@@H](O)[C@H]1C(=O)N2C(C(=O)[O-])=C(c3cn4c[n+](C)cc4s3)[C@H](C)[C@H]12 : 0.1
C[C@@H](O)[C@H]1C(=O)N2C(C(=O)O)=C(SCCN=CN)C[C@H]12 [Compound A, imipenem, reference compound] : 0.2

[I] C[C@@H](O)[C@H]1C(=O)N2C(C(=O)O)=C(S[C@@H]3CN[C@H](Cc4cn5c[n+](C)cc5s4)C3)[C@H](C)[C@H]12 [Compound B, reference compound]
[II] C[C@@H](O)[C@H]1C(=O)N2C(C(=O)O)=C(c3cn4cncc4s3)C[C@H]12
Q: // max by MIC over [ I , II ] Refer to your chosen item by its label in the answer.
Ans: II
(II: 0.2 µg/mL, I: 0.1 µg/mL)
